# procedureSummary: Biodisposition of JV-DE1 and JV-MD2 delivered via NIODP (periorbital skin) in non-human primates
# Type: in vivo, cynomolgus monkeys
# setupConditions: cynomolgus, cynomolgus monkey, eyelid/periorbital skin (upper eyelid), topical; JV-DE1; monkey; NIODP OD; 179.1 μg/eye; 0.5 h; read-out: Drug in OD Tissues, Eyelid/periorbital skin
reportedMetric: concentration at 0.5 h (ng/g)
Express your answer in ng/g, writing the number without its unit.

concentration at 0.5 h for CC(C)Oc1ccc(Cc2ccc(NC3=NCCN3)cc2)cc1 [JV-DE1] ?
26500

---

# procedureSummary: Biodisposition of JV-DE1 and JV-MD2 delivered via NIODP (periorbital skin) in non-human primates
# Format: in vivo, cynomolgus monkeys
# setupConditions: cynomolgus, cynomolgus monkey, vitreous humor, topical; JV-MD2; monkey; NIODP OS; 6747 μg/eye; 24 h; read-out: Drug in OS Tissues, Vitreous humor
reportedMetric: concentration at 24 h (ng/g)
Express your answer in ng/g, writing the number without its unit.

concentration at 24 h for CC/C=C\C/C=C\C/C=C\C/C=C\C/C=C\C/C=C\CCC(=O)O [JV-MD2, cis-4,7,10,13,16,19-docosahexaenoic acid] ?
2000

---

# procedureSummary: Biodisposition of JV-DE1 eye drops in New Zealand rabbits (LC-MS/MS of plasma and ocular tissues)
# Assay type: in vivo
# setupConditions: New Zealand, ciliary body/iris, topical or ocular, 120 ug; rabbit; eye drop 120 µg/eye; read-out: Cmax in ciliary body/iris
# Protocol: The in-life procedures and sample collections were performed at Joinn Laboratory Inc. (Suzhou, China). A single dose of 50 µL (120 µg) per eye of the 0.24% JV-DE1 eye drops was applied to both eyes of the animals at time 0 using a pipet. This dose was chosen based on the maximum amount deliverable as an eye drop. Blood samples were collected from all five study animals at 0 h pre-dosing. […] Plasma samples were collected before each euthanization. […]
reportedMetric: Cmax (ng/g)
Express your answer in ng/g, writing the number without its unit.

Cmax for CC(C)Oc1ccc(Cc2ccc(NC3=NCCN3)cc2)cc1 [JV-DE1] ?
305

---

# procedureSummary: Biodisposition of JV-DE1 eye drops in New Zealand rabbits (LC-MS/MS of plasma and ocular tissues)
# Format: in vivo
# setupConditions: New Zealand, anterior sclera, topical, 120 µg/eye; rabbit; single eye drop 120 μg/eye OD; 24 h; read-out: Drug in OD Tissues, Anterior sclera
reportedMetric: concentration at 24 h (ng/g)
Express your answer in ng/g, writing the number without its unit.

concentration at 24 h for `CC(C)Oc1ccc(Cc2ccc(NC3=NCCN3)cc2)cc1` ?
93.2

---

# procedureSummary: Biodisposition of JV-DE1 eye drops in New Zealand rabbits (LC-MS/MS of plasma and ocular tissues)
# Assay type: in vivo
# setupConditions: New Zealand, posterior sclera, topical, 120 µg/eye; rabbit; single eye drop 120 μg/eye OD; 0.5 h; read-out: Drug in OD Tissues, Posterior sclera
# Protocol: The in-life procedures and sample collections were performed at Joinn Laboratory Inc. (Suzhou, China). A single dose of 50 µL (120 µg) per eye of the 0.24% JV-DE1 eye drops was applied to both eyes of the animals at time 0 using a pipet. This dose was chosen based on the maximum amount deliverable as an eye drop. Blood samples were collected from all five study animals at 0 h pre-dosing. […] Plasma samples were collected before each euthanization. […]
reportedMetric: concentration at 0.5 h (ng/g)
Express your answer in ng/g, writing the number without its unit.

concentration at 0.5 h for `CC(C)Oc1ccc(Cc2ccc(NC3=NCCN3)cc2)cc1` ?
209

---

# procedureSummary: Biodisposition of JV-DE1 eye drops in New Zealand rabbits (LC-MS/MS of plasma and ocular tissues)
# Type: in vivo
# setupConditions: New Zealand, cornea, topical or ocular, 120 ug; rabbit; eye drop 120 µg/eye; read-out: Cmax in cornea
reportedMetric: Cmax

Cmax for `CC(C)Oc1ccc(Cc2ccc(NC3=NCCN3)cc2)cc1` ?
~12000 ng/g

---

# procedureSummary: Biodisposition of JV-DE1 eye drops in New Zealand rabbits (LC-MS/MS of plasma and ocular tissues)
# Format: in vivo
# setupConditions: New Zealand, cornea, topical, 120 µg/eye; rabbit; single eye drop 120 μg/eye OD; 0.5 h; read-out: Drug in OD Tissues, Cornea
reportedMetric: concentration at 0.5 h (ng/g)
Express your answer in ng/g, writing the number without its unit.

concentration at 0.5 h for `CC(C)Oc1ccc(Cc2ccc(NC3=NCCN3)cc2)cc1` ?
12100

---

# procedureSummary: Biodisposition of JV-DE1 and JV-MD2 delivered via NIODP (periorbital skin) in non-human primates
# Assay type: in vivo, cynomolgus monkeys
# setupConditions: cynomolgus, cynomolgus monkey, retina, topical; JV-DE1; monkey; NIODP OD; 162.2 μg/eye; 6 h; read-out: Drug in OD Tissues, Retina
reportedMetric: concentration at 6 h
Write your answer as a measured quantity: the number, then the unit.

concentration at 6 h for `CC(C)Oc1ccc(Cc2ccc(NC3=NCCN3)cc2)cc1` ?
45.5 ng/g

---

# procedureSummary: Biodisposition of JV-DE1 eye drops in New Zealand rabbits (LC-MS/MS of plasma and ocular tissues)
# Type: in vivo
# setupConditions: New Zealand, vitreous humor, topical, 120 µg/eye; rabbit; single eye drop 120 μg/eye OD; 6 h; read-out: Drug in vitreous humor
reportedMetric: concentration at 6 h (ng/mL)
Express your answer in ng/mL, writing the number without its unit.

concentration at 6 h for CC(C)Oc1ccc(Cc2ccc(NC3=NCCN3)cc2)cc1 [JV-DE1] ?
1.2

---

# procedureSummary: Biodisposition of JV-DE1 and JV-MD2 delivered via NIODP (periorbital skin) in non-human primates
# Type: in vivo, cynomolgus monkeys
# setupConditions: cynomolgus, cynomolgus monkey, vitreous humor, topical or ocular, 165.3 ug; JV-DE1; monkey; NIODP about 165.3 µg/eye OD; read-out: Cmax in vitreous humor
reportedMetric: Cmax (ng/mL)
Express your answer in ng/mL, writing the number without its unit.

Cmax for CC(C)Oc1ccc(Cc2ccc(NC3=NCCN3)cc2)cc1 [JV-DE1] ?
19

---

# procedureSummary: Biodisposition of JV-DE1 eye drops in New Zealand rabbits (LC-MS/MS of plasma and ocular tissues)
# Assay type: in vivo
# setupConditions: New Zealand, anterior sclera, topical, 120 µg/eye; rabbit; single eye drop 120 μg/eye OD; 3 h; read-out: Drug in OD Tissues, Anterior sclera
reportedMetric: concentration at 3 h (ng/g)
Express your answer in ng/g, writing the number without its unit.

concentration at 3 h for CC(C)Oc1ccc(Cc2ccc(NC3=NCCN3)cc2)cc1 [JV-DE1] ?
926

---

# procedureSummary: Biodisposition of JV-DE1 and JV-MD2 delivered via NIODP (periorbital skin) in non-human primates
# Assay type: in vivo, cynomolgus monkeys
# setupConditions: cynomolgus monkey, retina, topical; JV-MD2; NHP; about 7 mg/eye via NIODP; read-out: retinal Cmax
reportedMetric: Cmax

Cmax for CC/C=C\C/C=C\C/C=C\C/C=C\C/C=C\C/C=C\CCC(=O)O [JV-MD2, cis-4,7,10,13,16,19-docosahexaenoic acid] ?
~338 µM

---

# procedureSummary: Biodisposition of JV-DE1 eye drops in New Zealand rabbits (LC-MS/MS of plasma and ocular tissues)
# Format: in vivo
# setupConditions: New Zealand, anterior sclera, topical, 120 µg/eye; rabbit; single eye drop 120 μg/eye OD; 0.5 h; read-out: Drug in OD Tissues, Anterior sclera
reportedMetric: concentration at 0.5 h
Write your answer as a measured quantity: the number, then the unit.

concentration at 0.5 h for CC(C)Oc1ccc(Cc2ccc(NC3=NCCN3)cc2)cc1 [JV-DE1] ?
1790 ng/g

---

# procedureSummary: Biodisposition of JV-DE1 and JV-MD2 delivered via NIODP (periorbital skin) in non-human primates
# Assay type: in vivo, cynomolgus monkeys
# setupConditions: cynomolgus, cynomolgus monkey, vitreous humor, topical; JV-MD2; monkey; NIODP OS; 6768 μg/eye; 3 h; BLQ given a value of 0, LLOQ 0.5 µg/mL; read-out: Drug in OS Tissues, Vitreous humor
reportedMetric: concentration at 3 h (ng/g)
Express your answer in ng/g, writing the number without its unit.

concentration at 3 h for CC/C=C\C/C=C\C/C=C\C/C=C\C/C=C\C/C=C\CCC(=O)O [JV-MD2, cis-4,7,10,13,16,19-docosahexaenoic acid] ?
0

---

# procedureSummary: Biodisposition of JV-DE1 eye drops in New Zealand rabbits (LC-MS/MS of plasma and ocular tissues)
# Assay type: in vivo
# setupConditions: New Zealand, cornea, topical, 120 µg/eye; rabbit; single eye drop 120 μg/eye OD; 3 h; read-out: Drug in OD Tissues, Cornea
reportedMetric: concentration at 3 h
Write your answer as a measured quantity: the number, then the unit.

concentration at 3 h for `CC(C)Oc1ccc(Cc2ccc(NC3=NCCN3)cc2)cc1` ?
5950 ng/g

---

# procedureSummary: Biodisposition of JV-DE1 and JV-MD2 delivered via NIODP (periorbital skin) in non-human primates
# Format: in vivo, cynomolgus monkeys
# setupConditions: cynomolgus, cynomolgus monkey, plasma, topical; JV-DE1 0.53% w/w; monkey; NIODP periorbital skin OD; 162.2 μg/eye; 6 h; read-out: Drug in plasma
reportedMetric: concentration at 6 h (ng/mL)
Express your answer in ng/mL, writing the number without its unit.

concentration at 6 h for `CC(C)Oc1ccc(Cc2ccc(NC3=NCCN3)cc2)cc1` ?
0.3

Data provenance is paper PMC10535219.
